All values here come from ChEMBL document CHEMBL3352146.

- testSummary: Cytotoxicity against human HL60 cells after 48 hrs by trypan blue exclusion method
- Type: functional, cell-based
- measurementSetup: HL-60, 48 h
assayEndpoint: IC50

Example results:
# moleculeSmiles, endpointResult
measured = [
    ("CCOc1nc2c(=O)[nH]c3c(OC)c(OC)cc4ccn1c2c43", "> 10 µg/mL"),
    ("CCOC(=O)CCCNc1cnc2c3c(ccnc13)C=C(OC)C2=O", "> 10 µg/mL"),
]

Data request: Annotate the compound CCOC1=Nc2c(N)c(OC)cc3ccnc(c23)C1=O with its measured IC50.
Data returned: 110 nM

Data request: Hello, please tell me recorded IC50 for this one: COc1cc2ccn3c(CC(C)C)nc4c(=O)[nH]c(c1OC)c2c43
Data returned: > 10 µg/mL

Data request: For the compound COC1=Cc2ccnc3c(NCCC(C)C)cnc(c23)C1=O , give its reported IC50.
Data returned: 30 nM

Data request: Indicate the recorded IC50 value for this compound: COc1cc2ccn3c(C(C)C)nc4c(=O)[nH]c(c1OC)c2c43
Data returned: > 10 µg/mL
